ASSAY_INFO: Cytotoxicity assay in MT-4 cells
Type: cell-based, human
MEASUREMENT_CONDITIONS: human, uninfected MT-4 cells, 5 days incubation; read-out: CC50
ASSAY_METRIC: CC50 at 5 days

Guide cases for CC50 at 5 days, answers given:
COMPOUND	CC50 at 5 days
O=C(NCc1c(F)cc(F)cc1F)c1cn2c(c(O)c1=O)C(=O)N1CCC[C@@H](O)C[C@H]2C1	> 50 µM
CS(=O)(=O)N1CCN2CC(C1)n1cc(C(=O)NCc3ccc(F)cc3F)c(=O)c(O)c1C2=O (centres unmarked)	> 50 µM
O=C(NCc1c(F)cc(F)cc1F)c1cn2c(c(O)c1=O)C(=O)N1C[C@@H]2C[S+]([O-])c2ccccc21 (some centres unmarked)	> 50 µM
O=C(NCc1c(F)cc(F)cc1F)c1cn2c(c(O)c1=O)C(=O)N1C[C@@H]2CCc2cc(Cl)ccc21	> 13.8 µM

Now consider a different compound.
// returns reported CC50 at 5 days for input O=C(NCc1c(F)cc(F)cc1F)c1cn2c(c(O)c1=O)C(=O)N1CCCC(O)C2C1 (centres unmarked)
> 50 µM
